Origin of the recorded values: PubChem BioAssay (NCATS)

- test_system: Rap guanine nucleotide exchange factor 3 (Homo sapiens) (UniProt O95398)
- Sequence (O95398 whole entry, looked up): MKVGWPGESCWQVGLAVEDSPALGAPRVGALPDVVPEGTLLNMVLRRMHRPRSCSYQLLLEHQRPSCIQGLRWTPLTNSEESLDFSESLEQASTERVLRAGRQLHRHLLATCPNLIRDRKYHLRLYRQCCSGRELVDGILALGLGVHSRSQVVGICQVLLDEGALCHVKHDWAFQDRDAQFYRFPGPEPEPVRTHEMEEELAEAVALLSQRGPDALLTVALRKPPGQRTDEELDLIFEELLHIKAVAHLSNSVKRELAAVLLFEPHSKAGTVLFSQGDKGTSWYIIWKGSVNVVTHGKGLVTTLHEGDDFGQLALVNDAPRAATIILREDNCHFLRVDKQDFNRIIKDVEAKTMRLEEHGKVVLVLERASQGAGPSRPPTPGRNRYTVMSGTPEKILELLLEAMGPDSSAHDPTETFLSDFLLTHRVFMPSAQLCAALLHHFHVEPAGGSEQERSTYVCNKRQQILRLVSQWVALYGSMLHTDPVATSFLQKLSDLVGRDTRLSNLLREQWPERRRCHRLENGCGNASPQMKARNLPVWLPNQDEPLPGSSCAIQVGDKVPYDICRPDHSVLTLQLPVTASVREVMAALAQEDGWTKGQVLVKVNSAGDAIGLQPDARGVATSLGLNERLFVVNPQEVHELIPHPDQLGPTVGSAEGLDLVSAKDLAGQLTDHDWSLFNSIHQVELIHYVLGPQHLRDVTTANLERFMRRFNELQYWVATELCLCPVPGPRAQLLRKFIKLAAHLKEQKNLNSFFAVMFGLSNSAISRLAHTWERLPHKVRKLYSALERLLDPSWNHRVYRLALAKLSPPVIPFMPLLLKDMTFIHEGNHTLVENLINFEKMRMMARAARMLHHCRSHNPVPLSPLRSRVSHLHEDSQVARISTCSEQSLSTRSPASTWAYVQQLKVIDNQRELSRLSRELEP
- procedure_summary: Confirmatory qHTS for agonist of cAMP-regulated guanine nucleotide exchange factor 3 (EPAC1) (AID 1645881); further: nearly all actives have a fitted effect of over 75% in size;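 on activation: EPAC1 catalysed release of BODIPY-GDP from Rap1B seen as fluorescence loss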
- measurement_context: EPAC1 Rap1B BODIPY-GDP exchange fluorescence; series mostly up to 154 µM
Results filed as inconclusive are left out. Calls of active or inactive are those of the source. The call rests on the fitted dose curve; in most records, active means well fitted activation curve with a large enough effect; inconclusive means small, poorly fitted or top-dose-only effect; inactive means no such curve, though single readings can be large or run the other way.
Reply using exactly one outcome from active, inactive

>  <molecule>
COc1cc(C)ccc1S(=O)(=O)N1CCCCCC1

>  <test_system>
Rap guanine nucleotide exchange factor 3 (Homo sapiens) (UniProt O95398)

>  <qualitative_label>
inactive

$$$$

What was the test verdict on O=C(Nc1cc(-c2ccccc2)sc1C(=O)O)c1cccc(F)c1 ?
inactive

Given COc1ccc(C(CC(=O)N2CCOCC2)c2c(OC)cc(OC)c3c(-c4ccccc4)cc(=O)oc23)cc1 (configuration not stated) , state the outcome it received in this test.
inactive

Assay outcome for CCOc1cc(CNc2ccc(O)cc2)cc(Br)c1OCc1ccccc1 : what was it?
inactive

Please share the test call associated with Cc1ccc2oc(=O)n(CCOc3ccccc3Cl)c2c1 .
inactive

Could you check what this test reported for N#Cc1cc(C(=O)c2ccccc2O)cn(-c2nccs2)c1=O ?
active

Called result for CC(C)(C)NC(=O)NC(=O)CN1CCc2ccccc21
inactive

Hi team, can someone confirm the assay call for O=C(O)c1ccccc1NS(=O)(=O)c1ccc(N/N=C/c2ccc(O)c(O)c2)c([N+](=O)[O-])c1 ?
inactive

In this assay, the call recorded for CCOC(=O)N1CCN(c2ccc(S(=O)(=O)N(Cc3ccccc3)Cc3ccccc3)cn2)CC1 was what?
inactive

// return assay outcome for CCc1ccccc1Oc1nc(NC(C)C)nc2ccsc12
inactive
